Test system: NCI-H929 complex spheroids, viability % test/control
Protocol description: Anticancer human tumor NCI-H929 cell line growth inhibition [RAS];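 further: compound exposure lasted seven days before viability was read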;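 on viability, T/C: 100% = DMSO vehicle control viability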
Condition description: second compound 0.000949 µM; first compound 0.00316 µM; stronger effect = lower value
Recorded viability, T/C for the following compounds
Give the quantity in %, number only.

{"columns": ["Compound", "Measured on", "viability, T/C / %"],
 "data": [
  ["Nc1ccn(C2OC(CO)C(O)C2(F)F)c(=O)n1 (configuration not stated) + CCn1c(-c2cc(N3CCN(C)CC3)cnc2C(C)OC)c2c3cc(ccc31)-c1csc(n1)CC(NC(=O)C1CC1C)C(=O)N1CCCC(N1)C(=O)OCC(C)(C)C2", "NCI-H929 complex spheroids, viability % test/control", 110]
]}

Okay, next one:
Qu. Reported viability, T/C for CC(C)n1nc(-c2ccc3oc(N)nc3c2)c2c(N)ncnc21 + CCn1c(-c2cccnc2C(C)OC)c2c3cc(ccc31)N1CCOC(CC(NC(=O)C(C(C)C)N(C)C(=O)C3(F)CCN(C(=O)C#CC(C)(C)N(C)C)CC3)C(=O)N3CCCC(N3)C(=O)OCC(C)(C)C2)C1 : what is it?
Ans. 107

* * *

Tested on: NCI-H929 complex spheroids, viability % test/control
Protocol description: Anticancer human tumor NCI-H929 cell line growth inhibition [RAS];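 further: compound exposure lasted seven days before viability was read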;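 on viability, T/C: 100% = DMSO vehicle control viability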
Condition description: second compound 0.03 µM; first compound 0.1 µM; stronger effect = lower value
Assay endpoint: viability, T/C (%)
Give the quantity in %, number only.

Below, 5 compounds whose answers are already recorded.
{"columns": ["Compound", "viability, T/C [%]"],
 "data": [
  ["NC1c2ccccc2OC12CCN(c1cnc3c(N4CCCc5ncccc54)n[nH]c3n1)CC2 (configuration not stated) + CCn1c(-c2cc(N3CCN(C)CC3)cnc2C(C)OC)c2c3cc(ccc31)-c1csc(n1)CC(NC(=O)C1CC1C)C(=O)N1CCCC(N1)C(=O)OCC(C)(C)C2", 13.8],
  ["CC(Nc1ccc2c(c1)OCCn1cc(N3C(=O)OCC3C(F)F)nc1-2)C(N)=O (configuration not stated) + CCn1c(-c2cc(N3CCN(C)CC3)cnc2C(C)OC)c2c3cc(ccc31)-c1csc(n1)CC(NC(=O)C1CC1C)C(=O)N1CCCC(N1)C(=O)OCC(C)(C)C2", 9.9],
  ["CC(C)NCC(C(=O)N1CCN(c2ncnc3c2C(C)CC3O)CC1)c1ccc(Cl)cc1 (configuration not stated) + CCn1c(-c2cc(N3CCN(C)CC3)cnc2C(C)OC)c2c3cc(ccc31)-c1csc(n1)CC(NC(=O)C1CC1C)C(=O)N1CCCC(N1)C(=O)OCC(C)(C)C2", 23.2],
  ["CC(C)n1nc(-c2ccc3oc(N)nc3c2)c2c(N)ncnc21 + CCn1c(-c2cc(N3CCN(C)CC3)cnc2C(C)OC)c2c3cc(ccc31)-c1csc(n1)CC(NC(=O)C1CC1C)C(=O)N1CCCC(N1)C(=O)OCC(C)(C)C2", 0.46],
  ["CC1(O)CCCC1n1c(=O)c(C(F)F)cc2cnc(NC3CCN(S(C)(=O)=O)CC3)nc21 (configuration not stated) + CCn1c(-c2cc(N3CCN(C)CC3)cnc2C(C)OC)c2c3cc(ccc31)-c1csc(n1)CC(NC(=O)C1CC1C)C(=O)N1CCCC(N1)C(=O)OCC(C)(C)C2", 29.5]
]}

Qu. # value lookup — system NCI-H929 complex spheroids, viability % test/control, readout viability, T/C, item C[C@@H](NC(=O)c1ncnc(N)c1Cl)c1ncc(C(=O)Nc2cc(C(F)(F)F)c(Cl)cn2)s1 + CCn1c(-c2cccnc2C(C)OC)c2c3cc(ccc31)N1CCOC(CC(NC(=O)C(C(C)C)N(C)C(=O)C3(F)CCN(C(=O)C#CC(C)(C)N(C)C)CC3)C(=O)N3CCCC(N3)C(=O)OCC(C)(C)C2)C1
Ans. 105

Qu. # value lookup — system NCI-H929 complex spheroids, viability % test/control, readout viability, T/C, item CC1(O)CCCC1n1c(=O)c(C(F)F)cc2cnc(NC3CCN(S(C)(=O)=O)CC3)nc21 (configuration not stated) + CCn1c(-c2cccnc2C(C)OC)c2c3cc(ccc31)N1CCOC(CC(NC(=O)C(C(C)C)N(C)C(=O)C3(F)CCN(C(=O)C#CC(C)(C)N(C)C)CC3)C(=O)N3CCCC(N3)C(=O)OCC(C)(C)C2)C1
Ans. 28.9

Qu. # value lookup — system NCI-H929 complex spheroids, viability % test/control, readout viability, T/C, item C=CC(=O)Nc1cc(Nc2nccc(-c3cn(C)c4ccccc34)n2)c(OC)cc1N(C)CCN(C)C + CCn1c(-c2cc(N3CCN(C)CC3)cnc2C(C)OC)c2c3cc(ccc31)-c1csc(n1)CC(NC(=O)C1CC1C)C(=O)N1CCCC(N1)C(=O)OCC(C)(C)C2
Ans. 49.9

Qu. # value lookup — system NCI-H929 complex spheroids, viability % test/control, readout viability, T/C, item CC(Nc1ccc2c(c1)OCCn1cc(N3C(=O)OCC3C(F)F)nc1-2)C(N)=O (configuration not stated) + CCn1c(-c2cccnc2C(C)OC)c2c3cc(ccc31)N1CCOC(CC(NC(=O)C(C(C)C)N(C)C(=O)C3(F)CCN(C(=O)C#CC(C)(C)N(C)C)CC3)C(=O)N3CCCC(N3)C(=O)OCC(C)(C)C2)C1
Ans. 96.6

* * *

Test system: NCI-H929 complex spheroids, viability % test/control
Protocol description: Anticancer human tumor NCI-H929 cell line growth inhibition [RAS];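 further: compound exposure lasted seven days before viability was read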;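 on viability, T/C: 100% = DMSO vehicle control viability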
Condition description: second compound 0.0316 µM; first compound 0.00949 µM; stronger effect = lower value
Recorded viability, T/C for the following molecules
Give the quantity in %, number only.

Below, 2 molecules whose answers are already recorded.
{"columns": ["Molecule", "Result"],
 "data": [
  ["CC1(C)CCC(Nc2ncc(C(F)(F)F)c(-c3c[nH]c4c(P(C)(C)=O)c(C#N)ccc34)n2)CN1 (centres undefined) + C=CC(=O)N1CCN(c2nc(OCC3CCCN3C)nc3c(F)c(-c4nc(N)cc(C)c4C(F)(F)F)c(Cl)cc23)C(C)C1", 16.7],
  ["CC1(C)CCC(Nc2ncc(C(F)(F)F)c(-c3c[nH]c4c(P(C)(C)=O)c(C#N)ccc34)n2)CN1 (centres undefined) + C#Cc1c(F)ccc2cc(O)cc(-c3ncc4c(N5CC6CCC(C5)N6)nc(OCC56CCCN5CC(F)C6)nc4c3F)c12", 17.9]
]}

Qu. Reported viability, T/C for CCc1c2c(nc3ccc(O)cc13)-c1cc3c(c(=O)n1C2)COC(=O)[C@]3(O)CC + C#Cc1c(F)ccc2cc(O)cc(-c3ncc4c(N5CC6CCC(C5)N6)nc(OCC56CCCN5CC(F)C6)nc4c3F)c12 : what is it?
Ans. 1.08

Qu. Reported viability, T/C for CCc1c2c(nc3ccc(O)cc13)-c1cc3c(c(=O)n1C2)COC(=O)[C@]3(O)CC + C=CC(=O)N1CCN(c2nc(OCC3CCCN3C)nc3c(F)c(-c4nc(N)cc(C)c4C(F)(F)F)c(Cl)cc23)C(C)C1 : what is it?
Ans. 1.84

* * *

Tested on: NCI-H929 complex spheroids, viability % test/control
Protocol description: Anticancer human tumor NCI-H929 cell line growth inhibition [RAS];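 further: compound exposure lasted seven days before viability was read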
Condition description: curve of first compound; second compound 3.16 µM
pIC50: −log10 of the molar value.
Returns Criterion met if the recorded pIC50 is greater than or equal to 7, and Criterion not met otherwise.

Use these answered entries as a reference point.
{"columns": ["Molecule", "Assigned label"],
 "data": [
  ["C=CC(=O)Nc1cc(Nc2nccc(-c3cn(C)c4ccccc34)n2)c(OC)cc1N(C)CCN(C)C + C#Cc1c(F)ccc2cc(O)cc(-c3ncc4c(N5CC6CCC(C5)N6)nc(OCC56CCCN5CC(F)C6)nc4c3F)c12", "Criterion not met"],
  ["CCc1c2c(nc3ccc(O)cc13)-c1cc3c(c(=O)n1C2)COC(=O)[C@]3(O)CC + C#Cc1c(F)ccc2cc(O)cc(-c3ncc4c(N5CC6CCC(C5)N6)nc(OCC56CCCN5CC(F)C6)nc4c3F)c12", "Criterion met"],
  ["O=C(c1ccc(F)c(F)c1Nc1ccc(I)cc1F)N1CC(O)([C@@H]2CCCCN2)C1 + C#Cc1c(F)ccc2cc(O)cc(-c3ncc4c(N5CC6CCC(C5)N6)nc(OCC56CCCN5CC(F)C6)nc4c3F)c12", "Criterion not met"],
  ["CCC(CC)c1cc(NC2CCC(N)C2)n2nccc2n1 (stereo not given) + C#Cc1c(F)ccc2cc(O)cc(-c3ncc4c(N5CC6CCC(C5)N6)nc(OCC56CCCN5CC(F)C6)nc4c3F)c12", "Criterion not met"],
  ["Cc1nc(N2CCC3(CC2)COC(C)C3N)c(CO)nc1Sc1ccnc(N)c1Cl (stereo not given) + C#Cc1c(F)ccc2cc(O)cc(-c3ncc4c(N5CC6CCC(C5)N6)nc(OCC56CCCN5CC(F)C6)nc4c3F)c12", "Criterion not met"],
  ["CC(=O)OC12COC1CC(O)C1(C)C(=O)C(O)C3=C(C)C(OC(=O)C(O)C(NC(=O)OC(C)(C)C)c4ccccc4)CC(O)(C(OC(=O)c4ccccc4)C21)C3(C)C (stereo not given) + C#Cc1c(F)ccc2cc(O)cc(-c3ncc4c(N5CC6CCC(C5)N6)nc(OCC56CCCN5CC(F)C6)nc4c3F)c12", "Criterion met"],
  ["CC(Nc1ccc2c(c1)OCCn1cc(N3C(=O)OCC3C(F)F)nc1-2)C(N)=O (stereo not given) + C#Cc1c(F)ccc2cc(O)cc(-c3ncc4c(N5CC6CCC(C5)N6)nc(OCC56CCCN5CC(F)C6)nc4c3F)c12", "Criterion not met"],
  ["CC1(O)CCCC1n1c(=O)c(C(F)F)cc2cnc(NC3CCN(S(C)(=O)=O)CC3)nc21 (stereo not given) + C#Cc1c(F)ccc2cc(O)cc(-c3ncc4c(N5CC6CCC(C5)N6)nc(OCC56CCCN5CC(F)C6)nc4c3F)c12", "Criterion not met"]
]}

Qu. Answer whether pIC50 of Nc1ccn(C2OC(CO)C(O)C2(F)F)c(=O)n1 (stereo not given) + C#Cc1c(F)ccc2cc(O)cc(-c3ncc4c(N5CC6CCC(C5)N6)nc(OCC56CCCN5CC(F)C6)nc4c3F)c12 is greater than or equal to 7.
Ans. Criterion met

Qu. Answer whether pIC50 of CC(C)n1nc(-c2ccc3oc(N)nc3c2)c2c(N)ncnc21 + C#Cc1c(F)ccc2cc(O)cc(-c3ncc4c(N5CC6CCC(C5)N6)nc(OCC56CCCN5CC(F)C6)nc4c3F)c12 is greater than or equal to 7.
Ans. Criterion met
